- Tgt: human orexin-1 receptor (Homo sapiens (Human), UniProt O43613)
- Sequence (O43613 whole entry): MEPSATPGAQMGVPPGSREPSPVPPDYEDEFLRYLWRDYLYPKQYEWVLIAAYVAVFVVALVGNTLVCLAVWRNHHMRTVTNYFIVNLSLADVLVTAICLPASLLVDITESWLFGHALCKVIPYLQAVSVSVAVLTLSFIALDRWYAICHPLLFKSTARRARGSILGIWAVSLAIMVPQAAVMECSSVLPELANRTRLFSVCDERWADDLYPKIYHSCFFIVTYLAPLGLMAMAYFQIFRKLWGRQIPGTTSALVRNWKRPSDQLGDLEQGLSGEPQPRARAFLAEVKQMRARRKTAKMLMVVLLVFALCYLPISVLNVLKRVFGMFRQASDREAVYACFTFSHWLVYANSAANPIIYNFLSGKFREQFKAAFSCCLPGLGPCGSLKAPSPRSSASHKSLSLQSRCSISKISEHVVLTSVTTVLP
- Experimental details: Intracellular calcium measurements (FLIPR), antagonism of orexin-A response
- Settings: CHO cells expressing human orexin-1 receptor, 3 nM orexin-A, geometric mean if determined several times, read-out: IC50 OX1
pIC50: −log10 of the molar value.
Measurement kind: pIC50

These solved cases illustrate the format of a correct answer.
Cc1ccc(-n2nccn2)c(C(=O)N2CC[C@H]2c2nnc(-c3cccc(Cl)c3C)[nH]2)c1 [Example 124]; 5.23
COc1cc(C(=O)N2CC[C@H]2c2nc(-c3cccc(Cl)c3C)no2)c(-n2nccn2)cc1Cl [Example 74]; 6.24
O=C(c1ccccc1-n1nccn1)N1CC[C@H]1c1nc(-c2ccccc2OC(F)(F)F)no1 [Example 50]; 6.23

(P) Cc1ccc(-c2sc(C)nc2C(=O)N2CC[C@H]2c2nc(-c3cccc(Cl)c3C)no2)cc1 [Example 62]
(Q) Cc1ccc(-n2nccn2)c(C(=O)N2CC[C@H]2c2noc(-c3ccccc3OC(F)(F)F)n2)c1 [Example 84]
Q) I would appreciate it if you could say which entry, P or Q , has the lower pIC50 value. Reply with the label of the item you choose.
A) P
(P: 6.25, Q: 6.99)

* * *

- Tgt: human orexin-1 receptor (Homo sapiens (Human), UniProt O43613)
- Experimental details: Intracellular calcium measurements (FLIPR), antagonism of orexin-A response
- Settings: CHO cells expressing human orexin-1 receptor, 3 nM orexin-A, geometric mean if determined several times, read-out: IC50 OX1
Measurement kind: IC50 (nM)

These solved cases illustrate the format of a correct answer.
COc1c(Cl)cccc1-c1nnc([C@@H]2CCN2C(=O)c2cc(C)ccc2-n2nccn2)[nH]1 [Example 126]; 7230
CCOc1ncccc1-c1noc([C@@H]2CCN2C(=O)c2cc(C)c(C)cc2-n2nccn2)n1 [Example 31]; 68
O=C(c1ncsc1-c1cccc(Cl)c1)N1CC[C@H]1c1nc(-c2ccccc2OC(F)(F)F)no1 [Example 43]; 288
Cc1cc(C(=O)N2CC[C@H]2c2noc(-c3ccccc3OC(F)(F)F)n2)c(-n2nccn2)cc1C [Example 85]; 34

(1) Cc1ccc(-n2nccn2)c(C(=O)N2CC[C@H]2c2nc(-c3ccc(F)c(F)c3)no2)c1 [Example 12]
(2) Cc1onc(-c2ccccc2Cl)c1C(=O)N1CC[C@H]1c1nc(-c2ccccc2OC(F)(F)F)no1 [Example 53]
Q) I would appreciate it if you could say which entry, 1 or 2 , has the lower IC50 value. Reply with the label of the item you choose.
A) 2
(2: 1230 nM, 1: 2490 nM)
